- study system: T1, HLA-DRB1*04:01 (human, UniProt P01903 26-216; P01911 30-227, limits assumed)
- T1 construct: whole, on cells; on T2 cells; also called DR4
- T1 MHC II alpha: not shown
- T1 MHC II beta: not shown
- assay method text: flow cytometry, biotinylated peptide on HLA-expressing T2 cells, streptavidin-PE
Where no end group is shown, it is not given here.
metric name: binding result

{"binder": "LVRYWISAFP (also: biotinylated, site not given here, also called RASDRP2) [RASGRP2 78-87 peptide]", "metric name": "binding result", "value observed": "binds"}
{"binder": "HLVEELYLVAGEEG (also: biotinylated, site not given here) [Insulin Mimotope peptide]", "metric name": "binding result", "value observed": "binds"}
